pIC50: −log10 of the molar value.
measured metric: pIC50

*Q* Write down the reported pIC50 of "Cn1cnc2ccc(/C=C3\N=C(NC45CC6CC(CC(C6)C4)C5)NC3=O)cc21" , test system: Casein kinase I isoform epsilon (Homo sapiens, UniProt P49674).
Sequence (P49674 whole entry, canonical isoform): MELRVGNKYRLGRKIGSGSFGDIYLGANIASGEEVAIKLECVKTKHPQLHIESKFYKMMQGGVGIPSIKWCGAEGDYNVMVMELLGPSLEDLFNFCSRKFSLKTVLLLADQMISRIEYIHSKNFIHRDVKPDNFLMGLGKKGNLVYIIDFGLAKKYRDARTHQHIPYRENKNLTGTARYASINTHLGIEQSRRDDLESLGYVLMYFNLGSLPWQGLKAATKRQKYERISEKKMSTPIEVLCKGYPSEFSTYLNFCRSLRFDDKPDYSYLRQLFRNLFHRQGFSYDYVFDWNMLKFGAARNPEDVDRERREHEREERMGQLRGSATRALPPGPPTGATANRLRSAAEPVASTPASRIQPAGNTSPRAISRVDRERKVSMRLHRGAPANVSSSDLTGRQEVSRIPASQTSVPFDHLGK
*A* < 5.00

*Q* Casein kinase I isoform epsilon (Homo sapiens, UniProt P49674) / pIC50 / "O=C1NC(NC2CCCCC2)=N/C1=C\c1ccc2scnc2c1" : value?
*A* < 5.00

*Q* So what pIC50 did "O=C1NC(Nc2ccc(F)cc2)=N/C1=C\c1ccc2ncsc2c1" get with Casein kinase I isoform epsilon (Homo sapiens, UniProt P49674)?
*A* < 5.00

*Q* Query the reported pIC50 for Casein kinase I isoform epsilon (Homo sapiens, UniProt P49674); item: "CS(=O)(=O)NC12CC3CC(CC(NC4=N/C(=C\c5ccc6ncsc6c5)C(=O)N4)(C3)C1)C2"
*A* 5.24

*Q* Please tell me: pIC50 of "Cn1ccc2cc(/C=C3\N=C(NC4CCCCCC4)NC3=O)ccc21" , system Casein kinase I isoform epsilon (Homo sapiens, UniProt P49674)?
*A* < 5.00

Data origin: ChEMBL document CHEMBL5360622
